Sourced from patent US12274732B2

tested on: Cryptococcus neoformans; test: In vitro antimicrobial activity against Cryptococcus neoformans; assay type: cell-based; conditions: Cryptococcus neoformans; test conc. 200-8 μg/mL (extracts), 100-4 or 10-0.4 μg/mL (drugs); read-out: C. neoformans IC50

- Item Smiles: "OC(Cn1cncn1)(Cn1cncn1)c1ccc(F)cc1F"
  Target Or System: "Cryptococcus neoformans"
  IC50: "2.2 µg/mL"
- Item Smiles: "COc1cccc(OC)c1C(=O)N[C@@H]1C(=O)N2[C@@H]1SC(C)(C)[C@@H]2C(=O)O"
  Target Or System: "Cryptococcus neoformans"
  IC50: "> 100 µg/mL"
- Item Smiles: "C[C@@H](O)[C@H]1C(=O)N2C(C(=O)O)=C(S[C@@H]3CN[C@H](C(=O)N(C)C)C3)[C@H](C)[C@H]12"
  Target Or System: "Cryptococcus neoformans"
  IC50: "> 100 µg/mL"
- Item Smiles: "O=C(O)c1cn(C2CC2)c2cc(N3CCNCC3)c(F)cc2c1=O"
  Target Or System: "Cryptococcus neoformans"
  IC50: "> 10 µg/mL"
- Item Smiles: "CO/N=C(\\C(=O)N[C@@H]1C(=O)N2C(C(=O)O)=C(COC(C)=O)CS[C@H]12)c1csc(N)n1"
  Target Or System: "Cryptococcus neoformans"
  IC50: "> 100 µg/mL"
